Target: T1, human ASIC1 (human, UniProt P78348 1-528)
T1 sequence: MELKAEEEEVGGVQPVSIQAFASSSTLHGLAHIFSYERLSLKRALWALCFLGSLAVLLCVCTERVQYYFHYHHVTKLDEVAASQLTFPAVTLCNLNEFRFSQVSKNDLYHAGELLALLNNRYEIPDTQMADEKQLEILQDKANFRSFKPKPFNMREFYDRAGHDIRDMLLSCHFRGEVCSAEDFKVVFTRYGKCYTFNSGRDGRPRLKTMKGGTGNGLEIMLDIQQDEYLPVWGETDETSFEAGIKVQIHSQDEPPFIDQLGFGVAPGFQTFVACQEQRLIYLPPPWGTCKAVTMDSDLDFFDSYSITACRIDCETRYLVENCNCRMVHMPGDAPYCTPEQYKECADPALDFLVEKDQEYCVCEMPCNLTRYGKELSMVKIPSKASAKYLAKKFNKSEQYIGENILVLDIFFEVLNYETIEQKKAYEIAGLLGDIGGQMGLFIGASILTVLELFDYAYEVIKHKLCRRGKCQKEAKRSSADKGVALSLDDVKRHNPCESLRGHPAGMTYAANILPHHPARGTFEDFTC
Experiment: cell-based or functional assay
READOUT: apparent IC50, human ASIC1 current, Q-Patch

Use these answered entries as a reference point.
INSERT INTO assay_data (binder, result) VALUES
  ('H3M7102N (antibody, V domains shown, Chimeric: human variable, mouse constant domains; H3M prefix marks the Fc, isotype not spelled out) VH: EVQLLASGGGLVQPGGSLRLSCAASGFTFSSFAMSWVRQAPGKGLEWVSGISGSGGSTYYADSVKGRFTISRDNSKNTLYLQMNSLRAEDTAAYYCAKEAYKWQPWGQGIRVTVSS VL: DIQMTQSPSTLSASVGDRVSITCRASQSISSWLAWYQQKPGKAPKLLIYKASNLDSGVPSRFSGSGSGTDFTLTISSLQPDDFATYYCQQYNSYSYTFGQGTKLEIK', '≤ 10 nM'),
  ('H3M7118N (antibody, V domains shown, Chimeric: human variable, mouse constant domains; H3M prefix marks the Fc, isotype not spelled out) VH: EVQLLESGGGLVQPGGSLRLSCAASGFTFRNYAMSWVRQAPGKGLEWVSAINGGGDSTYYADSVKGRFTISRDNSKNTLYLQMNSLRAEDTAVYYCAKEEGDWNYVGYGYYYYYGMDVWGQGTTVTVSS VL: DIQMTQSPSSMSASVGDRVTITCRASQGISSWLAWYQQKPGKAPKLLIYAASSLQSGVPSRFSGSGSGTDFTLTIRSLQPEDFATYYCQQANSFPYTFGQGTKLEIK', '≤ 10 nM'),
  ('H1M6718N (antibody, mouse IgG1, V domains shown) VH: EVQLLESGGGLVQPGGSLRLSCAASGFTFSSFAMSWVRQAPGKGLEWVSGISGSGGGTHYADSVKGRFTISRDNSKNMVYLQMNSLRAEDTAAYYCAKEAYKWQPWGQGTLVTVSS VL: DIQMTQSPSTLSASVGDRVIITCRASQRISSWLAWYQQKPGKAPNLLIYKASILESGVPSRFSGSGSGTEFTLTISSLQPDDFATYYCQQYNSYSYTFGQGTKLEIK', '< 1 nM');

Switching to the query record.
According to the records, this binder H4H6718N (antibody, human IgG4, V domains shown) VH: EVQLLESGGGLVQPGGSLRLSCAASGFTFSSFAMSWVRQAPGKGLEWVSGISGSGGGTHYADSVKGRFTISRDNSKNMVYLQMNSLRAEDTAAYYCAKEAYKWQPWGQGTLVTVSS VL: DIQMTQSPSTLSASVGDRVIITCRASQRISSWLAWYQQKPGKAPNLLIYKASILESGVPSRFSGSGSGTEFTLTISSLQPDDFATYYCQQYNSYSYTFGQGTKLEIK displays apparent IC50, human ASIC1 current, Q-Patch of < 1 nM
